# procedure_details: aqueous solubility at various pH
# Type: physicochemical
# particulars: aqueous solution, pH 6.78, aqueous buffer; pH of about 6.78
Non-standard residues stand in square brackets, D forms with d. Residues, ends and D or L forms follow the SMILES beside them. Dopa = N[C@@H](Cc1ccc(O)c(O)c1)C(=O)O

compound	solubility
N[C@@H](Cc1ccc(O)c(O)c1)C(=O)N[C@@H](Cc1ccc(O)cc1)C(=O)O [Form N] (H-[Dopa]-Tyr-OH)	~0.51 mg/mL

----------
# procedure_details: aqueous solubility at various pH
# Format: physicochemical
# particulars: aqueous solution, pH 7.56, aqueous buffer; pH of about 7.56
Non-standard residues stand in square brackets, D forms with d. Residues, ends and D or L forms follow the SMILES beside them. Dopa = N[C@@H](Cc1ccc(O)c(O)c1)C(=O)O

compound	solubility
N[C@@H](Cc1ccc(O)c(O)c1)C(=O)N[C@@H](Cc1ccc(O)cc1)C(=O)O [Form N] (H-[Dopa]-Tyr-OH)	~18.9 mg/mL

----------
# procedure_details: aqueous solubility at various pH
# Assay type: physicochemical
# particulars: aqueous medium, pH 4.68, aqueous buffer; pH of about 4.68
Non-standard residues stand in square brackets, D forms with d. Residues, ends and D or L forms follow the SMILES beside them. Dopa = N[C@@H](Cc1ccc(O)c(O)c1)C(=O)O

compound	solubility
N[C@@H](Cc1ccc(O)c(O)c1)C(=O)N[C@@H](Cc1ccc(O)cc1)C(=O)O [Form N] (H-[Dopa]-Tyr-OH)	~1330 µg/mL
